System: SN12C
procedure text: NCI tumour cell line growth inhibition, 48 h
The source made the active and inactive calls. Rule as the data show it: active = GI50 up to about 1.1 µM and inactive = higher.
measured property: GI50

>  <compound>
O=C(O)CCc1c2ccc(=O)c(O)c-2oc2c(O)c(O)ccc12

>  <recorded measurement>
15.9 µM (inactive)

$$$$
>  <compound>
COc1cc2ncnc(Nc3cccc(Cl)c3)c2cc1OC

>  <recorded measurement>
8.91 µM (inactive)

$$$$
>  <compound>
CCCC(=O)Nc1cn(COC)c(C(=O)N2C[C@@H]3C[C@]34C2=CC(=O)c2[nH]cc(C)c24)n1

>  <recorded measurement>
11.2 µM (inactive)

$$$$
>  <compound>
Cc1ccc(NC(=O)CCc2cc(C(C)(C)C)nc(S)n2)cc1C

>  <recorded measurement>
> 100 µM (inactive)

$$$$
>  <compound>
Cc1ccc2c(c1)c(=O)c1c(NCCN(C)C)ccc3nnn2c31

>  <recorded measurement>
3.45 µM (inactive)

$$$$
>  <compound>
CC[C@@H]([C@H](O)c1ccccc1Cl)[N+](=O)[O-]

>  <recorded measurement>
> 100 µM (inactive)

$$$$
>  <compound>
N#CC12C3C4CC5C6C4C1C6C(O)(C53)N2Cc1ccccc1 (stereo unspecified)

>  <recorded measurement>
> 100 µM (inactive)

$$$$
>  <compound>
C#Cc1ccccc1N1C(=O)C=CC1=O

>  <recorded measurement>
> 100 µM (inactive)

$$$$
>  <compound>
CC(=O)C1=C(C)NC(=C(C#N)C#N)C(C#N)=C1

>  <recorded measurement>
> 100 µM (inactive)

$$$$
>  <compound>
COC(=O)C(Cc1ccccc1)NC(=O)CSc1nnc(COc2ccc(Cl)cc2)n1-c1ccccc1 (stereo unspecified)

>  <recorded measurement>
21.2 µM (inactive)

$$$$
>  <compound>
Cc1c(C(=O)C/C(=N\O)C(=O)Nc2cc(Cl)c(Cl)cc2Cl)[n+]([O-])c2ccccc2[n+]1[O-]

>  <recorded measurement>
4.83 µM (inactive)

$$$$

----------
System: TK-10
procedure text: NCI tumour cell line growth inhibition, 48 h
Active and inactive are the calls of the source. No stated cut-off is given here; in the data, active = GI50 up to about 1.1 µM and inactive = higher.

>  <molecule>
O=C(O)c1ccccc1CC1Cc2cc3c(cc2C1)CCC3

>  <GI50>
> 100 µM (inactive)

$$$$
>  <molecule>
O=C(O)c1ccccc1C1CCCc2c1[nH]c1ccccc21 (centres undefined)

>  <GI50>
> 100 µM (inactive)

$$$$
>  <molecule>
CC(C)NC(C)C(C)c1ccccc1 (centres undefined)

>  <GI50>
> 100 µM (inactive)

$$$$
>  <molecule>
Cc1ccc2c(=O)c(-c3n[nH]c(=S)s3)c[nH]c2n1

>  <GI50>
> 100 µM (inactive)

$$$$
>  <molecule>
N#Cc1c(N)[nH]c2ccc(Sc3ccccc3)cc12

>  <GI50>
1.8 µM (inactive)

$$$$
>  <molecule>
CC1=CC[C@@H](C(C)(C)O)C[C@@H]1O

>  <GI50>
> 5000 µM (inactive)

$$$$
>  <molecule>
CCNC(=O)/C(=C/c1ccc(OC)cc1)c1cc(OC)c(OC)c(OC)c1

>  <GI50>
20.5 µM (inactive)

$$$$
>  <molecule>
O=C(O)c1ccccc1CN1CCCC(C(=O)O)C1 (centres undefined)

>  <GI50>
> 100 µM (inactive)

$$$$
>  <molecule>
Cc1ccccc1Cn1nc2ccccc2cc1=O

>  <GI50>
> 100 µM (inactive)

$$$$
>  <molecule>
O=C(/C(=C\C(=O)c1cccs1)c1ccsc1)c1ccc(Br)cc1

>  <GI50>
> 100 µM (inactive)

$$$$
>  <molecule>
COC(=O)CCC(=O)c1ccc2c(c1)CCC2

>  <GI50>
> 100 µM (inactive)

$$$$
>  <molecule>
COC(=O)C1=C(C(=O)Nc2cccnc2Cl)N(c2ccc(OC)cc2[N+](=O)[O-])C(c2ccc(C)cc2)=CC1c1ccc(OC)cc1OC (centres undefined)

>  <GI50>
20.7 µM (inactive)

$$$$
>  <molecule>
N#CC12C3C4CC5C6C4C1C6C(O)(C53)N2Cc1ccccc1 (centres undefined)

>  <GI50>
> 100 µM (inactive)

$$$$
>  <molecule>
C/C(=N\NC(=S)NC1CCCC1)c1ccccn1

>  <GI50>
0.202 µM (active)

$$$$
>  <molecule>
CCCCCCCCCCCCCCCCCC(CCCCCCCCCCCCCCCCC)OP(=O)(O)O

>  <GI50>
> 100 µM (inactive)

$$$$
>  <molecule>
COCOc1cc(OC)c(Br)cc1C/C(=N/O)C(=O)OC

>  <GI50>
35.1 µM (inactive)

$$$$
>  <molecule>
Cc1ccc(C(=O)N/N=C(\N=N\c2ccc(C(=O)O)cc2)c2ccc(N(CCC#N)CCC#N)cc2C)cc1

>  <GI50>
> 100 µM (inactive)

$$$$
>  <molecule>
COC(=O)CCC(=O)NC1=C(Nc2ccc(OC)cc2)C(=O)c2ccccc2C1=O

>  <GI50>
32.7 µM (inactive)

$$$$
>  <molecule>
C/C(=C1/CCCC2(N=NCC2c2ccccc2)C1=O)c1ccccc1 (centres undefined)

>  <GI50>
42.7 µM (inactive)

$$$$
>  <molecule>
ClCCCN1CCN(CCCl)CC1

>  <GI50>
357 µM (inactive)

$$$$
>  <molecule>
CC(/C=N/N=C1NCCCCN1)=N\N=C1NCCCCN1

>  <GI50>
> 100 µM (inactive)

$$$$
>  <molecule>
N=c1c2ccccc2sc2nc3ccccc3n12

>  <GI50>
> 100 µM (inactive)

$$$$
>  <molecule>
Cn1c(=O)oc2cc(C(O)CN3CCN(Cc4ccccn4)CC3)c(Cl)cc21 (centres undefined)

>  <GI50>
> 100 µM (inactive)

$$$$
>  <molecule>
Cc1ccc(NC(=O)CCc2cc(C(C)(C)C)nc(S)n2)cc1C

>  <GI50>
> 100 µM (inactive)

$$$$
